System: Histone deacetylase 1 (Homo sapiens, UniProt Q13547) | Read-out: IC50 | Origin: multiple publications

Known IC50 results, listed for orientation:
| molecule | IC50 |
| --- | --- |
| C[C@@H](c1ccc(C(=O)Nc2ccccc2N)cc1)n1nc(-c2ccc(CN(C)C)cc2)ccc1=O | 23.3 nM |
| COc1ncc(-c2nc(N3CCOCC3)nc3c(OC4CCC(c5ccc(C(=O)NO)cc5F)CC4)cc(F)cc23)cc1NS(C)(=O)=O (stereo not shown) | 1000 to 10000 nM |
| Fc1ccc(N(Cc2ccc(-c3nnc(C(F)F)o3)cc2)C(=S)N2CC3(C2)CN(C2COC2)C3)cc1 | > 10000 nM |

// COc1ncc(-c2nc(N3CCOCC3)nc3c(OCc4ncc(C(=O)NO)cc4F)cc(F)cc23)cc1NS(C)(=O)=O : IC50 value = 100 to 1000 nM
